target: T1, human chemokine (C-C motif) receptor 8 (CCR8) (human, UniProt P51685 1-355); experiment: flow cytometry blocking, PBMC CCR8+ CD4+ cells; competitor PE-AB15 (its MFI is read)
T1 construct: On human peripheral blood lymphocytes / PBMC (native) or on human CCR8 GFP-transfected Ba/F3 cells; also called hCCR8; human CCR8
T1 sequence (P51685 whole entry): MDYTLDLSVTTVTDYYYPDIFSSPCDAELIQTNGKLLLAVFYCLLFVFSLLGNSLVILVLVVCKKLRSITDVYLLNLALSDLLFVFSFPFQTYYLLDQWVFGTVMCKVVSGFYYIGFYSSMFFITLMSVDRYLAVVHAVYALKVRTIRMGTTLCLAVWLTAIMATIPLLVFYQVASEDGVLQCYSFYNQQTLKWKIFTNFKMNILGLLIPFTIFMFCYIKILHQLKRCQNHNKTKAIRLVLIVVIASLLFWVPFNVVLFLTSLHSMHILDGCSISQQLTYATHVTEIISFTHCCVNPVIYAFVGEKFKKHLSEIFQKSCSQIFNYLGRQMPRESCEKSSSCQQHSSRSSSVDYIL
Task for the reader: assign each of the following binders its reported MFI.
Please give the numeric answer without any surrounding text.

Fill blank: measured MFI of the binder AB1 (antibody, V domains shown, Hybridoma monoclonal (mice or rats immunised); Used purified and PE-conjugated; also called antibody 1; clone 1) VH: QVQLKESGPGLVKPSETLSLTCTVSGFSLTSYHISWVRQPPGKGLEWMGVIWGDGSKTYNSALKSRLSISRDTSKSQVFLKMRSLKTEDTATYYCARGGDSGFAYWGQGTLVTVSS VL: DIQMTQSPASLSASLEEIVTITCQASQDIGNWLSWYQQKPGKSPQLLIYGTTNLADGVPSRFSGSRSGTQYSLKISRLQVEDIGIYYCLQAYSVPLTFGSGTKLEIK is ____.
780

Fill blank: measured MFI of the binder AB11 (antibody, V domains shown, Hybridoma monoclonal; also called antibody 11; clone 11) VH: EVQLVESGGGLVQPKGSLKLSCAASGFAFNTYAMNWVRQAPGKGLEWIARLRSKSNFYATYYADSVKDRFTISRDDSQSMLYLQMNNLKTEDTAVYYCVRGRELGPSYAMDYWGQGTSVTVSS VL: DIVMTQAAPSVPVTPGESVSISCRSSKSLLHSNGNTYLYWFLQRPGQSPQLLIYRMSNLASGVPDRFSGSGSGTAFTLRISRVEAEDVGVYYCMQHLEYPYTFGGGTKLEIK is ____.
1390
